Test system: P. aeruginosa MB9798 (efflux+, IMP-1 plasmid)
Details: fold difference between efflux+ (MB9798) and efflux− (MB9799) strains
Counter-ions that a name gives are not always drawn.
MEASURE: Efflux ratio
The response must contain the number and no unit.

Here are 10 molecules together with their reported answers.
molecule="NS(=O)(=O)c1c(S(=O)(=O)N[C@@H]2CCNC2)ccc(NC2CCOCC2)c1-c1nnn[nH]1 [Example 66]" assayed_target="P. aeruginosa MB9798 (efflux+, IMP-1 plasmid)" observed=15.99
molecule="NC[C@@H](O)CNS(=O)(=O)c1ccc(N2CCC(NCCO)CC2)c(-c2nn[nH]n2)c1S(N)(=O)=O [Example 142, bis(2,2,2-trifluoroacetate)]" assayed_target="P. aeruginosa MB9798 (efflux+, IMP-1 plasmid)" observed=1.00
molecule="NCCNS(=O)(=O)C1CCN(c2ccc(S(=O)(=O)NC[C@H](O)CN)c(S(N)(=O)=O)c2-c2nn[nH]n2)CC1 [Example 131]" assayed_target="P. aeruginosa MB9798 (efflux+, IMP-1 plasmid)" observed=1.00
molecule="NS(=O)(=O)c1c(S(=O)(=O)N[C@@H]2CCNC2)ccc(N2CCC(CO)CC2)c1-c1nnn[nH]1 [Example 101]" assayed_target="P. aeruginosa MB9798 (efflux+, IMP-1 plasmid)" observed=2.00
molecule="NC[C@@H](O)CNS(=O)(=O)c1ccc(N2CC[C@@H](CN)C2)c(-c2nn[nH]n2)c1S(N)(=O)=O [Example 121]" assayed_target="P. aeruginosa MB9798 (efflux+, IMP-1 plasmid)" observed=2.00
molecule="NCCC1CCCN(c2ccc(S(=O)(=O)NC[C@H](O)CN)c(S(N)(=O)=O)c2-c2nn[nH]n2)CC1 (stereo partly drawn) [Example 140, trifluoroacetate]" assayed_target="P. aeruginosa MB9798 (efflux+, IMP-1 plasmid)" observed=2.00
molecule="NC[C@@H](O)CNS(=O)(=O)c1ccc(N2CC[C@@H](N)[C@@H](F)C2)c(-c2nn[nH]n2)c1S(N)(=O)=O (single isomer, unassigned) [Example 1]" assayed_target="P. aeruginosa MB9798 (efflux+, IMP-1 plasmid)" observed=2.00
molecule="NCC1(O)CCN(c2ccc(S(=O)(=O)N[C@@H]3CCNC3)c(S(N)(=O)=O)c2-c2nnn[nH]2)CC1 [Example 85]" assayed_target="P. aeruginosa MB9798 (efflux+, IMP-1 plasmid)" observed=2.00
molecule="NCC1=CCN(c2ccc(S(=O)(=O)NC[C@H](O)CN)c(S(N)(=O)=O)c2-c2nn[nH]n2)CC1 [Example 175]" assayed_target="P. aeruginosa MB9798 (efflux+, IMP-1 plasmid)" observed=2.00
molecule="NC[C@@H](O)CNS(=O)(=O)c1ccc(N2CCC(O)CC2)c(-c2nn[nH]n2)c1S(N)(=O)=O [Example 120]" assayed_target="P. aeruginosa MB9798 (efflux+, IMP-1 plasmid)" observed=1.00

We now examine a further molecule.
Exam item: Given NC[C@@H](O)CNS(=O)(=O)c1ccc(N2CCNC(CO)C2)c(-c2nn[nH]n2)c1S(N)(=O)=O (stereo partly drawn) [Example 122] , respond with its Efflux ratio.
Marked response: 2.00

====

Target: VIM-2 (Escherichia coli, UniProt Q5U7L7)
Test: biochemical
Details: CCF2-FA fluorescence assay; read-out: VIM2 IC50
MEASURE: log10 IC50 (log10 of the value in nM)
Scale: decimal log of IC50, IC50 in nM.

Here are 5 molecules together with their reported answers.
molecule=NS(=O)(=O)c1c(S(=O)(=O)C2CNC2)ccc(N2C[C@H](O)C[C@@H](O)C2)c1-c1nnn[nH]1 measure="log10 IC50" observed=2.16
molecule="NS(=O)(=O)c1c(S(=O)(=O)N[C@@H]2CCNC2)ccc(N2CCC(CCO)C2)c1-c1nnn[nH]1 (stereo partly shown)" measure="log10 IC50" observed=0.00
molecule=NC[C@@H](O)CNS(=O)(=O)c1ccc(N2CCC[C@H](CN)C2)c(-c2nnn[nH]2)c1S(N)(=O)=O measure="log10 IC50" observed=1.06
molecule=NCC(=O)N1CCN(c2ccc(S(=O)(=O)NC[C@H](O)CN)c(S(N)(=O)=O)c2-c2nn[nH]n2)CC1 measure="log10 IC50" observed=1.00
molecule=NCC1CCN(c2ccc(S(=O)(=O)N[C@@H]3CCNC3)c(S(N)(=O)=O)c2-c2nnn[nH]2)CC1 measure="log10 IC50" observed=0.26

Exam item: Lab note: VIM-2 (Escherichia coli, UniProt Q5U7L7) assay, enter log10 IC50 for NC[C@@H](O)CNS(=O)(=O)c1ccc(N2CCC[C@@H](CN)C2)c(-c2nnn[nH]2)c1S(N)(=O)=O here
Marked response: 0.32

Exam item: Lab note: VIM-2 (Escherichia coli, UniProt Q5U7L7) assay, enter log10 IC50 for CNCC1CCN(c2ccc(S(=O)(=O)N[C@@H]3CCNC3)c(S(N)(=O)=O)c2-c2nnn[nH]2)CC1 here
Marked response: 0.84
